Source: patent US20240400560A1

EC50 overview
System: SARS-CoV-2
Assay: Inhibitory activity of cytopathic effect (CPE) in HEK293T/ACE2-TMPRSS2 cells
Type: cell-based
Details: Severe acute respiratory syndrome coronavirus 2, HEK-293T, 72 h; 50% SARS-CoV-2 infected cell death inhibitory concentration; HEK293T/ACE2-TMPRSS2 cells; CellTiter-Glo 2.0 after 3 days culture; read-out: EC50

Compound	EC50 (nM)
[2H]C([2H])([2H])O[C@@H]1CCN(c2cc3c(c(OC)n2)c(=O)n(-c2cncc(Cl)c2C)c(=O)n3-c2ccc(F)c(Cl)c2)C1 (atropisomer, axis not shown)	6.34
COc1nc(N2CC[C@@H](CO)C2)cc2c1c(=O)n(-c1cnc3cc(F)ccn13)c(=O)n2-c1ccc(F)c(Cl)c1	25.9
N#Cc1ccc(Cl)c(-c2cc3c(c(=O)n(-c4cncc(Cl)c4)c(=O)n3Cc3cc(F)c(F)c(F)c3)c3occc23)c1	52.5
COc1nc2c(=O)n(Cc3ncn(C)n3)c(=O)n(Cc3cc(F)c(F)c(Cl)c3)c2cc1-c1nc(C)ccc1Cl	12.1
Cn1cnc(Cn2c(=O)c3c(cc(-c4cc(C#N)ccc4Cl)n4c(=O)[nH]nc34)n(Cc3cc(F)c(F)c(F)c3)c2=O)n1	13900
Cn1cnc(Cn2c(=O)c3c4c(c(-c5cc(C(C)(C)O)ccc5Cl)cc3n(Cc3cc(F)c(F)c(Cl)c3)c2=O)CCO4)n1	15.8
COc1nc(-c2c(Cl)ccc3c2CCN(C)C3=O)cc2c1c(=O)n(Cc1ncn(C)n1)c(=O)n2Cc1cc(F)c(F)c(Cl)c1	39.2
Cn1cnc(Cn2c(=O)c3c4ncccc4c(-c4cc(C#N)ccc4Cl)cc3n(Cc3cc(F)c(F)c(F)c3)c2=O)n1	50.1
COc1nc(N2CC[C@@H](C#N)C2)cc2c1c(=O)n(Cc1ncn(C)n1)c(=O)n2Cc1cc(F)c(F)c(F)c1	13.6
C=C(C)c1cc2c(c(OC)n1)c(=O)n(-c1cnc3cc(F)ccn13)c(=O)n2-c1ccc(F)c(Cl)c1	570
COc1nc(N2C[C@@H]3C[C@H]2CO3)cc2c1c(=O)n(-c1cnc3cc(F)ccn13)c(=O)n2-c1ccc(F)c(F)c1	11.8
COc1nc(N2CC[C@@H](C#N)C2)cc2c1c(=O)n(-c1cncc(F)c1)c(=O)n2-c1ccc(F)c(F)c1	8.89
COc1nc(N2C[C@@H](F)[C@@H](F)C2)cc2c1c(=O)n(-c1cnc3cc(F)ccn13)c(=O)n2-c1ccc(F)c(C(F)F)c1	5.82

----------
Molecular target: SARS-CoV-2 3CL protease (Severe acute respiratory syndrome coronavirus 2, UniProt P0DTD1)
Assay: Inhibitory activity test against SARS-CoV-2 3CL proteases
Assay type: biochemical
Conditions: IC50 (50% SARS-CoV-2 3CL protease inhibitory concentration)
Quantity Kind: IC50 (nM)

                            compound_string  sign_qualifier  test_value
0  COc1nc(N2[C@@H]3CC[C@H]2CNC3)cc2c1c(=O)n(-c1cnc3ccc(Cl)cn13)c(=O)n2-c1ccc(F)c(Cl)c1               =         3.9
1  COc1nc(N2[C@@H]3CC[C@H]2CNC3)cc2c1c(=O)n(-c1cnc3cc(Cl)ccn13)c(=O)n2Cc1cc(F)c(F)c(F)c1               =         9.9
2  O=c1c2c(F)cc(N3[C@@H]4CC[C@H]3CNC4)cc2n(Cc2cc(F)c(F)c(Cl)c2)c(=O)n1-c1cnc2ccccn12               <         100
3  COc1nc(N2CC[C@H](F)C2)cc2c1c(=O)n(Cc1ncn(C)n1)c(=O)n2Cc1cc(F)c(F)c(F)c1               <         100
4  COc1nc(N2[C@@H]3CC[C@H]2CNC3)cc2c1c(=O)n(-c1cnc3ccc(Cl)cn13)c(=O)n2Cc1cc(Cl)ccc1Cl               <         100
5  COc1cc(N2[C@@H]3CC[C@H]2CNC3)cc2c1c(=O)n(-c1cnc3cc(F)ccn13)c(=O)n2Cc1cc(Cl)c(F)cc1C               =         1.2
